Record set of IC50 for target or system Human DYRK1A (Homo sapiens, UniProt Q13627).

# compound, targetOrTestSystem, IC50
measured = [
    ("COc1cc2cc(C(=O)Nc3ccncc3C)c(=O)[nH]c2cc1OC [Example 21]", "Human DYRK1A (Homo sapiens, UniProt Q13627)", "> 10 µM"),
    ("COc1cc2cc(C(=O)Nc3cc(-c4nnn[nH]4)ccc3C)c(=O)[nH]c2cc1OC [Example 22]", "Human DYRK1A (Homo sapiens, UniProt Q13627)", "> 10 µM"),
    ("COc1cc2cc(C(=O)Nc3cc(C(=O)N[C@@H](CO)CC(C)C)ccc3C)c(=O)[nH]c2cc1OC [Example 66]", "Human DYRK1A (Homo sapiens, UniProt Q13627)", "> 10 µM"),
]
